Value source: ChEMBL document CHEMBL1697781

The molecules listed here are annotated with their Composite Activity - Active.
# Test system: Hepatotoxicity
# methodNotes: FDA HLAED, liver enzyme composite activity
# measurementSetup: human

molecule: Nc1nc(O)c2ncn(COC(CO)CO)c2n1
Composite Activity - Active: 1
--
molecule: C=C1CC[C@@]2(O)[C@H]3Cc4ccc(O)c5c4[C@@]2(CCN3CC2CC2)[C@H]1O5
Composite Activity - Active: 0
--
molecule: CC[C@H]1OC(=O)[C@H](C)[C@@H](O[C@H]2C[C@@](C)(OC)[C@@H](O)[C@H](C)O2)[C@H](C)[C@@H](O[C@@H]2O[C@H](C)C[C@H](N(C)C)[C@H]2O)[C@](C)(O)C[C@@H](C)[C@@H]2N[C@@H](COCCOC)O[C@H]([C@H]2C)[C@]1(C)O
Composite Activity - Active: 0
--
molecule: COCCOC(=O)C1=C(C)NC(C)=C(C(=O)OC(C)C)C1c1cccc([N+](=O)[O-])c1 (configuration not stated)
Composite Activity - Active: 5
--
molecule: CCCCC[C@H](O)/C=C/[C@H]1[C@H](O)CC(=O)[C@@H]1CCCCCCC(=O)O
Composite Activity - Active: 0
--
molecule: C[N+](C)(C)C[C@H](O)CC(=O)[O-]
Composite Activity - Active: 0
--
molecule: C[C@]12CC[C@H]3[C@@H](CCC4=CC(=O)CC[C@@]43C)[C@@H]1CC[C@@H]2O
Composite Activity - Active: 0
--
molecule: O=C(NCC1CCCCN1)c1cc(OCC(F)(F)F)ccc1OCC(F)(F)F (configuration not stated) [FLECAINIDE]
Composite Activity - Active: 3
--
molecule: CC(=O)CC(c1ccccc1)c1c(O)c2ccccc2oc1=O (configuration not stated)
Composite Activity - Active: 0
--
molecule: O=C1CN=C(c2ccccc2)c2cc(Cl)ccc2N1CC(F)(F)F
Composite Activity - Active: 0
--
molecule: Cc1ccc(-c2nc3ccc(C)cn3c2CC(=O)N(C)C)cc1
Composite Activity - Active: 0
--
molecule: C[C@]12CC[C@@H]3c4ccc(O)cc4CC[C@H]3[C@@H]1CC[C@@H]2OC(=O)CCC1CCCC1 [ESTRADIOL CYPIONATE]
Composite Activity - Active: 0

---

# Test system: Hepatotoxicity
# methodNotes: FDA HLAED, gamma-glutamyl transferase (GGT) increase
# measurementSetup: human

compound: C[C@H](CCC(=O)O)[C@H]1CC[C@H]2[C@@H]3[C@H](O)C[C@@H]4C[C@H](O)CC[C@]4(C)[C@H]3CC[C@]12C
GGT Increase - Number of Reports: < 4
//
compound: NC(=O)N1c2ccccc2C=Cc2ccccc21 [CARBAMAZEPINE]
GGT Increase - Number of Reports: >= 4
//
compound: CC(=O)OCC1=C(C(=O)O)N2C(=O)[C@@H](NC(=O)CSc3ccncc3)[C@H]2SC1
GGT Increase - Number of Reports: < 4
//
compound: CCn1cc(C(=O)O)c(=O)c2cc(F)c(N3CCNCC3)nc21
GGT Increase - Number of Reports: < 4
//
compound: COCC1=C(C(=O)O)N2C(=O)[C@@H](NC(=O)/C(=N\OC)c3csc(N)n3)[C@H]2SC1
GGT Increase - Number of Reports: < 4
//
compound: COc1ccc(CCN(C)CCCC(C#N)(c2ccc(OC)c(OC)c2)C(C)C)cc1OC (stereo not given)
GGT Increase - Number of Reports: < 4
//
compound: CN[C@H]1CC[C@@H](c2ccc(Cl)c(Cl)c2)c2ccccc21
GGT Increase - Number of Reports: >= 4
//
compound: O=C(O)P(=O)(O)O
GGT Increase - Number of Reports: < 4
//
compound: C=CC1=C(C(=O)O)N2C(=O)[C@@H](NC(=O)/C(=N\OCC(=O)O)c3csc(N)n3)[C@H]2SC1
GGT Increase - Number of Reports: < 4
//
compound: O=C(O)[C@@H](S)[C@@H](S)C(=O)O
GGT Increase - Number of Reports: < 4
